B1: Hairpin Ribozyme (parent)
chain: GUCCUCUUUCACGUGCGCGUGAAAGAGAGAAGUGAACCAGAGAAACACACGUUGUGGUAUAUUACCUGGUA

Variants of: B1
Assay: self-cleavage, relative activity (ratio to wild type); higher = more cleavage; co-transcriptional
Class (by self-cleavage) -- lower bin (below 0.1), middle bin (0.1 to below 0.3), upper bin (0.3 or more)

{"residue_change": "A23U A45U", "category_label": "middle bin"}
{"residue_change": "G27C A36U", "category_label": "middle bin"}
{"residue_change": "C10G C18U", "category_label": "upper bin"}
{"residue_change": "A11C G32C", "category_label": "lower bin"}
{"residue_change": "U52G U53A", "category_label": "upper bin"}
{"residue_change": "G25A U58A", "category_label": "upper bin"}
{"residue_change": "G19A U67C", "category_label": "middle bin"}
{"residue_change": "A31C A35C", "category_label": "lower bin"}
{"residue_change": "A26U A47G", "category_label": "middle bin"}
{"residue_change": "C38G U55A", "category_label": "middle bin"}
{"residue_change": "A24G G57C", "category_label": "middle bin"}
